Taken from patent US20240140991A1.

Reported Minimum inhibitory concentration (MIC) values are given for each entry in this list.
- Tested on: Escherichia coli ATCC 25922
- Format: cell-based
- measurement_context: ATCC 25922
Positions of bridges follow the written chain, without caps; N, C: chain ends. Non-standard residues stand in square brackets, D forms with d. Residues, ends and D or L forms follow the SMILES beside them. *: point of attachment. Octanoyl(7-Me) = CC(C)CCCCCC(=O)*; dOrn = NCCC[C@@H](N)C(=O)O; Orn = NCCC[C@H](N)C(=O)O; OAll = C=CCO*

[
  {
    "molecule": "CC[C@H](C)[C@H](NC(=O)[C@H](CO)NC(=O)[C@H](Cc1c[nH]c2ccccc12)NC(=O)[C@@H](CCCN)NC(=O)CNC(=O)[C@H](CCCN)NC(=O)[C@@H](CCCN)NC(=O)[C@@H](Cc1c[nH]c2ccccc12)NC(=O)[C@@H](Cc1ccc(O)cc1)NC(=O)[C@@H](CO)NC(=O)CCCCCC(C)C)C(=O)N[C@@H](CC(N)=O)C(N)=O [ΔG12-G13-Ser9-isoC9] ({Octanoyl(7-Me)}-[dS][dY][dW][dOrn][Orn]G[dOrn]WSIN-NH2)",
    "subject_of_test": "Escherichia coli ATCC 25922",
    "Minimum inhibitory concentration (MIC)": "4 µg/mL"
  },
  {
    "molecule": "CC(C)CCCCCC(=O)N[C@H](CO)C(=O)N[C@H](Cc1ccc(O)cc1)C(=O)N[C@H](Cc1c[nH]c2ccccc12)C(=O)N[C@H](CCCN)C(=O)N[C@@H](CCCN)C(=O)NCC(=O)N[C@H](CCCN)C(=O)N[C@@H](Cc1c[nH]c2ccccc12)C(N)=O [ΔT9-G13, FA-sywoOGoW-CONH2] ({Octanoyl(7-Me)}-[dS][dY][dW][dOrn][Orn]G[dOrn]W-NH2)",
    "subject_of_test": "Escherichia coli ATCC 25922",
    "Minimum inhibitory concentration (MIC)": "16 µg/mL"
  },
  {
    "molecule": "CC[C@H](C)[C@@H]1NC(=O)[C@@H](NC(=O)[C@H](Cc2c[nH]c3ccccc23)NC(=O)[C@@H](CCCN)NC(=O)CNC(=O)[C@H](CCCN)NC(=O)[C@@H](CCCN)NC(=O)[C@@H](Cc2c[nH]c3ccccc23)NC(=O)[C@@H](Cc2ccc(O)cc2)NC(=O)[C@@H](CO)NC(=O)CCCCCC(C)C)[C@@H](C)OC(=O)[C@@H](C)NC(=O)[C@@H](CO)NC(=O)CNC1=O [Compound R12] ({Octanoyl(7-Me)}-[dS][dY][dW][dOrn][Orn]G[dOrn]WTIG[dS][dA]; ester 9-C; N-terminus assumed)",
    "subject_of_test": "Escherichia coli ATCC 25922",
    "Minimum inhibitory concentration (MIC)": "1 to 2 µg/mL"
  },
  {
    "molecule": "CC(C)CCCCCC(=O)N[C@H](CO)C(=O)N[C@H](Cc1ccc(O)cc1)C(=O)N[C@H](Cc1c[nH]c2ccccc12)C(=O)N[C@H](CCCN)C(=O)N[C@@H](CCCN)C(=O)NCC(=O)N[C@H](CCCN)C(=O)N[C@@H](Cc1c[nH]c2ccccc12)C(=O)N[C@H](C(N)=O)[C@@H](C)O [ΔI10-G13, FA-sywoOGoWT-CONH2] ({Octanoyl(7-Me)}-[dS][dY][dW][dOrn][Orn]G[dOrn]WT-NH2)",
    "subject_of_test": "Escherichia coli ATCC 25922",
    "Minimum inhibitory concentration (MIC)": "16 µg/mL"
  },
  {
    "molecule": "C=CCOC(=O)CC[C@H](NC(=O)[C@H](Cc1c[nH]c2ccccc12)NC(=O)[C@@H](CCCN)NC(=O)CNC(=O)[C@H](CCCN)NC(=O)[C@@H](CCCN)NC(=O)[C@@H](Cc1c[nH]c2ccccc12)NC(=O)[C@@H](Cc1ccc(O)cc1)NC(=O)[C@@H](CO)NC(=O)CCCCCC(C)C)C(=O)N[C@H](C(=O)N[C@@H](CC(N)=O)C(=O)NCC(=O)NCC(N)=O)[C@@H](C)CC [Glu(OAll)9-CONH2] ({Octanoyl(7-Me)}-[dS][dY][dW][dOrn][Orn]G[dOrn]WE(OAll)INGG-NH2)",
    "subject_of_test": "Escherichia coli ATCC 25922",
    "Minimum inhibitory concentration (MIC)": "8 µg/mL"
  },
  {
    "molecule": "CC[C@H](C)[C@H](NC(=O)[C@@H](NC(=O)[C@H](Cc1c[nH]c2ccccc12)NC(=O)[C@@H](CCCN)NC(=O)CNC(=O)[C@H](CCCN)NC(=O)[C@@H](CCCN)NC(=O)[C@@H](Cc1c[nH]c2ccccc12)NC(=O)[C@@H](Cc1ccc(O)cc1)NC(=O)[C@@H](CO)NC(=O)CCCCCC(C)C)[C@@H](C)O)C(=O)N[C@@H](CC(N)=O)C(=O)NCC(=O)NCC(N)=O [Thr (linear laterocidine)] ({Octanoyl(7-Me)}-[dS][dY][dW][dOrn][Orn]G[dOrn]WTINGG-NH2; N-terminus and C-terminus assumed)",
    "subject_of_test": "Escherichia coli ATCC 25922",
    "Minimum inhibitory concentration (MIC)": "2 µg/mL"
  }
]
